- target: Peroxisome proliferator-activated receptor delta (Homo sapiens)
- assay.comment: Maximum transcriptional activation of human PPAR delta receptor
quantity.name: pEC50
pEC50 here: minus log base 10 of the concentration, concentration in moles per litre.

compound.structure: Cc1cc(OCc2sc(-c3ccc(C(F)(F)F)cc3)nc2C)ccc1/C=C/C(=O)O
pEC50: 7.70
//
compound.structure: Cc1nc(-c2ccc(C(F)(F)F)cc2)oc1COc1ccc(OCC(=O)O)cc1
pEC50: 6.33
//
compound.structure: Cc1cc(SCc2oc(-c3ccc(C(F)(F)F)cc3)nc2C)ccc1OCC(=O)O
pEC50: 8.00

Exam item: Param item = `Cc1cc(OCc2sc(-c3ccc(C(F)(F)F)cc3)nc2C)ccc1CCC(=O)O` ; retrieve measured pEC50.
Marked response: 7.52

Exam item: Note, next up: `Cc1nc(-c2ccc(C(F)(F)F)cc2)oc1COc1ccc(C(=O)O)cc1`
Marked response: 5.23

----------
- target: Peroxisome proliferator-activated receptor delta (Homo sapiens, UniProt Q03181)
- Sequence (Q03181 whole entry): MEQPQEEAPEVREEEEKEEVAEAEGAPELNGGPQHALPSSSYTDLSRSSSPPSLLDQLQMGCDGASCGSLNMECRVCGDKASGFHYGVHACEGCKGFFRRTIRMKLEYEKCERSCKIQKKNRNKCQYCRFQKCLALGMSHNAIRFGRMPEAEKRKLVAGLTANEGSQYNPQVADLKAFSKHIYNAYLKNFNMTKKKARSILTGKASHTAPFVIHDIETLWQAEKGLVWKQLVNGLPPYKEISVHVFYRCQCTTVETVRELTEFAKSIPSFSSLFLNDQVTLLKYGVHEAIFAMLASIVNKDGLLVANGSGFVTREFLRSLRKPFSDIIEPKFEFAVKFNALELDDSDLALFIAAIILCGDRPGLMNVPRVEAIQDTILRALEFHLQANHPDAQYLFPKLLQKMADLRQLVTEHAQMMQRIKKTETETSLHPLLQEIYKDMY
- assay.comment: Binding affinity for human PPAR delta receptor
Mark Met only for IC50 values smaller than 60 nM; exact matches and larger values are Not met.

compound.structure: Cc1nc(-c2ccc(C(F)(F)F)cc2)sc1COc1ccc(CCC(=O)O)cc1
answer.label: Met
//
compound.structure: Cc1nc(-c2ccc(C(F)(F)F)cc2)oc1CSc1ccc(OCC(=O)O)cc1
answer.label: Not met
//
compound.structure: Cc1nc(-c2ccc(C(F)(F)F)cc2)oc1COc1ccc(OCC(=O)O)cc1
answer.label: Not met
//
compound.structure: Cc1nc(-c2ccc(C(F)(F)F)cc2)oc1COc1ccc(CCC(=O)O)cc1
answer.label: Not met

Exam item: Regarding `Cc1cc(OCc2sc(-c3ccc(C(F)(F)F)cc3)nc2C)ccc1/C=C/C(=O)O` , kindly confirm whether its IC50 is beneath 60 nM.
Marked response: Not met

Exam item: Okay, and `Cc1nc(-c2ccc(C(F)(F)F)cc2)oc1COc1ccc(C(=O)O)cc1` ?
Marked response: Not met

Exam item: Entry to check: `Cc1nc(-c2ccc(C(F)(F)F)cc2)sc1COc1ccc(CC(=O)O)cc1`
Marked response: Not met

Exam item: Try the compound `Cc1cc(OCc2oc(-c3ccc(C(F)(F)F)cc3)nc2C)ccc1OCC(=O)O`
Marked response: Met

Exam item: Also need `Cc1cc(SCc2oc(-c3ccc(C(F)(F)F)cc3)nc2C)ccc1OCC(=O)O` , thanks.
Marked response: Met

----------
- target: Peroxisome proliferator-activated receptor delta (Homo sapiens, UniProt Q03181)
- assay.comment: Maximum transcriptional activation of human PPAR delta receptor
pEC50: −log10 of the molar value.
Please mark 1.0 if the recorded pEC50 is equal to or greater than 6, and 0.0 if it falls below.

These recorded examples may help you get a feel for the data.
compound.structure: Cc1nc(-c2ccc(C(F)(F)F)cc2)sc1COc1ccc(CC(=O)O)cc1
answer.label: 0.0
//
compound.structure: Cc1nc(-c2ccc(C(F)(F)F)cc2)sc1COc1ccc(CCC(=O)O)cc1
answer.label: 1.0
//
compound.structure: Cc1nc(-c2ccc(C(F)(F)F)cc2)oc1CSc1ccc(OCC(=O)O)cc1
answer.label: 1.0

Exam item: Dear colleague, could you confirm whether `Cc1cc(OCc2oc(-c3ccc(C(F)(F)F)cc3)nc2C)ccc1OCC(=O)O` has pEC50 at or above 6?
Marked response: 1.0

Exam item: Field entry: `Cc1nc(-c2ccc(C(F)(F)F)cc2)oc1COc1ccc(CCC(=O)O)cc1`
Marked response: 1.0
